# system: Adenosine receptor A1 (Rattus norvegicus)
# Sequence (P25099 whole entry): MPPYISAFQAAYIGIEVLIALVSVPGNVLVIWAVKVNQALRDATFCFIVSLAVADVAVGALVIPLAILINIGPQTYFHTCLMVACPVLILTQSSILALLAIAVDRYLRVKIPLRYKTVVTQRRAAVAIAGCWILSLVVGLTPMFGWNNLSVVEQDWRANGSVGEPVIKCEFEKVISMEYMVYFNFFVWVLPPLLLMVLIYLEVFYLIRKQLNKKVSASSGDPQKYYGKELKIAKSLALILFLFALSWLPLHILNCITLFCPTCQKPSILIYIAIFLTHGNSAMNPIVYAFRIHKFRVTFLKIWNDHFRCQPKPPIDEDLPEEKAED
# assaySummary: GTP-induced shift at rat Adenosine A1 receptor (A1AR)
measurementKind: GTP shift

// solved cases for GTP shift follow
C[C@H]1O[C@@H](n2cnc3c(NC4CCCC4)ncnc32)[C@H](O)[C@H]1NC(=O)CCCc1cccs1 :: 0.7
O=C(CCCc1cccs1)N[C@@H]1[C@@H](O)[C@H](n2cnc3c(NC4CCCC4)ncnc32)O[C@@H]1CO :: 0.69
C[C@H]1O[C@@H](n2cnc3c(NC4CCCC4)ncnc32)[C@H](O)[C@H]1NC(=O)C1(c2ccccc2)CCCCC1 :: 0.74
Cc1ccc(C(=O)N[C@@H]2[C@@H](O)[C@H](n3cnc4c(NC5CCCC5)ncnc43)O[C@@H]2CO)cc1C :: 0.73
C[C@H]1O[C@@H](n2cnc3c(NC4CCCC4)ncnc32)[C@H](O)[C@H]1NC(=O)C1CCCC[C@H]1C(=O)c1cccs1 (some centres undefined) :: 0.72
C[C@H]1O[C@@H](n2cnc3c(NC4CCCC4)ncnc32)[C@H](O)[C@H]1NC(=O)C1(c2ccccc2)CCCC1 :: 0.84
Cn1cnc2c(NC3CCCC3)ncnc21 :: 0.94

(I) O=C(N[C@@H]1[C@@H](O)[C@H](n2cnc3c(NC4CCCC4)ncnc32)O[C@@H]1CO)c1ccc(F)c(Cl)c1
(II) C[C@H]1O[C@@H](n2cnc3c(NC4CCCC4)ncnc32)[C@H](O)[C@H]1O
Could you determine which record has the numerically smaller GTP shift? Candidates: I and II Your answer should be the label of the entry you select. I
